# assayed_target: Transcriptional enhancer factor TEF-3 (Homo sapiens) (UniProt Q15561)
# Sequence (Q15561 whole entry): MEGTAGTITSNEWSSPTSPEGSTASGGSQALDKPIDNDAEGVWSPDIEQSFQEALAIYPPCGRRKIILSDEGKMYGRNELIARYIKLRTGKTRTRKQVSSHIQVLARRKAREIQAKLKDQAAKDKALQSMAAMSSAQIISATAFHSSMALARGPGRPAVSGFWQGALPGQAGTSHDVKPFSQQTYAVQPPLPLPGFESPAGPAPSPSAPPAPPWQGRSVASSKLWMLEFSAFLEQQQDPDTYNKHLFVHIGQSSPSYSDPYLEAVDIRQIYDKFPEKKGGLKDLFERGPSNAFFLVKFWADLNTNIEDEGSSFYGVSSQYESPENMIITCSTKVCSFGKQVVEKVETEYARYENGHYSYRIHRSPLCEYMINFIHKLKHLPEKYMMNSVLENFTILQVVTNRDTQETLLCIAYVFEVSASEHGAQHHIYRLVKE
# assay_info: Binding affinity to TEAD4 (unknown origin) assessed as change in aggregation temperature at 25 uM by DSLS thermal shift assay
Entries annotated with measured deltaT

{"chemical_smiles": "O=C(O)c1ccc(F)cc1Nc1cccc(COc2ccccc2)c1", "deltaT": "3 °C"}
{"chemical_smiles": "COc1cccc(-c2cccc(Nc3cc(F)ccc3C(=O)O)c2)c1", "deltaT": "3.5 °C"}
{"chemical_smiles": "Cc1ccc(Nc2cc(F)ccc2C(=O)O)cc1", "deltaT": "4 °C"}
{"chemical_smiles": "O=C(O)c1ccc(F)cc1Nc1cccc(-c2cccnc2)c1", "deltaT": "0 °C"}
{"chemical_smiles": "Cc1cccc(Nc2cc(F)ccc2C(=O)O)c1", "deltaT": "4.7 °C"}
{"chemical_smiles": "O=C(O)c1ccc(F)cc1Nc1cccc(-c2ccccc2)c1", "deltaT": "3.4 °C"}
{"chemical_smiles": "O=C(O)c1ccc(F)cc1Nc1cccc(Cc2ccccc2)c1", "deltaT": "3 °C"}
{"chemical_smiles": "O=C(O)c1ccc(F)cc1Nc1cccc(-c2ccc(C(F)(F)F)cc2)c1", "deltaT": "4.5 °C"}
{"chemical_smiles": "COc1ccc(-c2cccc(Nc3cc(F)ccc3C(=O)O)c2)cc1", "deltaT": "2.7 °C"}
{"chemical_smiles": "O=C(O)c1ccc(F)cc1Nc1cccc(OCc2ccccc2)c1", "deltaT": "3.8 °C"}
{"chemical_smiles": "O=C(O)c1ccc(F)cc1Nc1cccc(CCc2ccccc2)c1", "deltaT": "5.6 °C"}
{"chemical_smiles": "O=C(O)c1cccnc1Nc1cccc(-c2cccc(C(F)(F)F)c2)c1", "deltaT": "4.8 °C"}
{"chemical_smiles": "O=C(O)c1ccc(F)cc1Nc1cccc(-c2cccc(C(F)(F)F)c2)c1", "deltaT": "6.2 °C"}
{"chemical_smiles": "O=C(O)c1ccccc1Nc1cccc(-c2ccccc2)c1", "deltaT": "2.1 °C"}
{"chemical_smiles": "Cc1ccccc1Nc1cc(F)ccc1C(=O)O", "deltaT": "2.2 °C"}
{"chemical_smiles": "Cc1ccc(Nc2cccc(OCc3ccccc3)c2)c(C(=O)O)c1", "deltaT": "4 °C"}
{"chemical_smiles": "COc1ccccc1-c1cccc(Nc2cc(F)ccc2C(=O)O)c1", "deltaT": "1.3 °C"}
{"chemical_smiles": "Cc1ccc(Nc2cc(F)ccc2C(=O)O)cc1OCc1ccccc1", "deltaT": "3.8 °C"}
{"chemical_smiles": "Cc1ccc(C(=O)O)c(Nc2cccc(OCc3ccccc3)c2)c1", "deltaT": "2.3 °C"}
{"chemical_smiles": "O=C(O)c1ccc(F)cc1Nc1cccc(OCCc2ccccc2)c1", "deltaT": "5.1 °C"}
{"chemical_smiles": "O=C(O)c1ccccc1Nc1cccc(OCc2ccccc2)c1", "deltaT": "2.9 °C"}
{"chemical_smiles": "O=C(O)c1ccc(F)cc1Nc1cccc(-c2cccc(F)c2)c1", "deltaT": "3.9 °C"}
{"chemical_smiles": "O=C(O)c1ccc(F)cc1Nc1cccc(-c2ccccn2)c1", "deltaT": "1 °C"}
{"chemical_smiles": "O=C(O)c1ccc(F)cc1Nc1cccc(-c2cccc(Cl)c2)c1", "deltaT": "3.1 °C"}
{"chemical_smiles": "O=C(O)c1ccc(F)cc1Nc1cccc(-c2cccc(Br)c2)c1", "deltaT": "3.9 °C"}
{"chemical_smiles": "O=C(O)c1ccc(F)cc1Nc1ccccc1-c1cccs1", "deltaT": "5.5 °C"}
{"chemical_smiles": "O=C(O)c1ccc(F)cc1Nc1cccc(-c2ccccc2C(F)(F)F)c1", "deltaT": "2.5 °C"}
